Data provenance: PubChem BioAssay (NCI)

Consider the following molecules; for each one, report its GI50.
Test system: K-562 leukemia
Experiment: NCI tumour cell line growth inhibition, 48 h

The cases that follow already have their GI50 on record.
>>> value_reported("COc1cc(/C(=C2/O[C@@H]([C@H]3COC(C)(C)O3)[C@H]3OC(C)(C)O[C@@H]23)c2ccc3ccccc3c2)cc(OC)c1OC")
"4.02 µM"
>>> value_reported("CCCCCCn1c(-c2ccc(C(=O)O/N=C(\\N)c3ccc4ccccc4c3)cc2)nc(-c2ccccc2)c1-c1ccccc1")
"2.42 µM"
>>> value_reported("Cc1ccc2c(c1)c(Sc1ccc(C(=O)NO)cc1)c1n2CN(C)CC1")
"3.17 µM"

List GI50 for every entry below, keeping the order given.
1. COCCNc1ccc2c3c(cccc13)C(=O)N(CCN(C)C)C2=O
2. COc1ccc2c(c1)CC[C@@H]1[C@@H]2CC[C@]2(C)c3c(cc(C(=O)O)c4sccc34)C[C@@H]12
3. CN1CCC2(CC1)NC(=O)c1c(c3ccc(Cl)c(Cl)c3n1C)C2C#N (centres undefined)
4. COc1cc2ncnc(Nc3cccc(Cl)c3F)c2cc1OC(=O)N1CCN(C)C[C@H]1C
5. N#Cc1c(N2CCOCC2)nc(=S)[nH]c1-c1ccccc1
6. O=C(/C(=C/c1ccc([N+](=O)[O-])cc1)SCc1ccc(Cl)cc1)c1ccc(F)cc1

1. 4.66 µM
2. 5.79 µM
3. 5.76 µM
4. > 30.7 µM
5. 52 µM
6. 2.45 µM

---

Test system: MDA-MB-231 breast
Experiment: NCI tumour cell line growth inhibition, 48 h
Parameter measured: GI50

The cases that follow already have their GI50 on record.
>>> value_reported("COc1ccc(Nc2cc(C)nc(NCc3ccccc3)n2)cc1")
"3450 nM"
>>> value_reported("O=C(/C(=C/c1ccc([N+](=O)[O-])cc1)SCc1ccc(Cl)cc1)c1ccc(F)cc1")
"2140 nM"
>>> value_reported("COc1ccc2c(O)c(/C=C3\\N=Nc4ccccc43)oc2c1C[C@@H]1CCNC[C@H]1F")
"2420 nM"

List GI50 for every entry below, keeping the order given.
1. C=C1C(=O)O[C@H]2[C@H]1CC/C(C=Nc1c(N)cc(C(F)(F)F)cc1C(F)(F)F)=C\CC[C@@]1(C)O[C@@H]21
2. CCOC(=O)c1cc(C(=O)c2cc(OC)c(OC)c(OC)c2)n2c1ccc1ccccc12

1. 1380 nM
2. 1480 nM

---

Test system: SK-MEL-5 melanoma
Experiment: NCI tumour cell line growth inhibition, 48 h
Parameter measured: TGI (µM)
Numbers only, in µM.

>>> value_reported("CCOC(=O)C(C(=O)OCC)c1ccc([N+](=O)[O-])o1")
31.5

List TGI for every entry below, keeping the order given.
1. Clc1ccc(C(Cc2cccc(Cl)c2)c2c(Cl)nc(N3CCNCC3)nc2Cl)cc1 (configuration not stated)
2. C=C(C)[C@@]1(O)CCCC[C@@H]1CC(Sc1ccccc1)Sc1ccccc1
3. CC(=NNC(=S)Nc1cccc(C)c1)c1cccc(C(C)=NNC(=S)Nc2cccc(C)c2)n1

1: 29.7; 2: 29.5; 3: 30.8

List TGI for every entry below, keeping the order given.
1. COC(=O)c1ccccc1CC(Cc1ccc2c(c1)CCC2)C(=O)OC (configuration not stated)
2. CCCNCC(=O)O[C@]1(CC)C(=O)OCc2c1cc1n(c2=O)Cc2cc3ccccc3nc2-1
3. O=c1c2ccccc2nc2n1-c1ccccc1SC2
4. Cc1ccc2c(c1)c(Sc1ccc(C(=O)NO)cc1)c1n2CN(C)CC1
5. CC[C@@]1(O)C(=O)OCc2c1cc1n(c2=O)Cc2cc3cccc([N+](=O)[O-])c3nc2-1
6. COc1ccc2cc(C(=O)/C=C/c3ccc(N(C)C)cc3)ccc2c1

84.1
0.304
86.9
6.27
2.74
72.8
